experimental.target: T1, Cynomolgus CD73 protein (Novoprotein, item No. CI21) (cynomolgus, UniProt A0A2K5V5U7 27-547)
T1 construct: Bought protein
T1 sequence: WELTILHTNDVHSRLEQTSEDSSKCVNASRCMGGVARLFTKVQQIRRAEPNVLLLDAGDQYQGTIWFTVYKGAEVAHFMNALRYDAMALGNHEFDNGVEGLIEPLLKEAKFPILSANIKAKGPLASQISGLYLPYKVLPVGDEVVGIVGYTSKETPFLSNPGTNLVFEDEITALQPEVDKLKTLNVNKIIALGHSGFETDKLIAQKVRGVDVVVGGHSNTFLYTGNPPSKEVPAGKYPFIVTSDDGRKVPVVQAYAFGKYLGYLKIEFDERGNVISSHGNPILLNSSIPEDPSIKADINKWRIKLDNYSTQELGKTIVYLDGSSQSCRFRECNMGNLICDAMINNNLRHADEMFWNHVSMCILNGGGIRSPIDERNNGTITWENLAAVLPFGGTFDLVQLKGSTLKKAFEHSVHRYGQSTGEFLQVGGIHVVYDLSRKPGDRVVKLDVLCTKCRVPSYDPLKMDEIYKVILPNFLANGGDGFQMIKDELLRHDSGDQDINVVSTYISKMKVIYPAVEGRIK
measurement.notes: SPR, Biacore T200, antibody captured on protein A chip, cynomolgus CD73 as analyte, 1:1 model
recorded.metric: Kd (nM)
Kindly provide the numeric value in nM only, without the unit symbol.

Inquiry: Dear colleague, I am looking for the recorded Kd of the following binder: 900726 (humanized anti-CD73 antigen-binding protein) (antibody, V domains shown) VH: QVQLVQSGAEVKKPGASVKLSCKASGYTFTSYWIHWVRQAPGQGLEWIGMIHPNSGSTYYNEKFKGRATLTVDKSTSTAYMELSSLRSEDTAVYYCARYYGSDYEWYFDVWGQGTTVTVSS VL: DIQMTQSPSSLSASVGDRVTITCKASQNVRTAVVWYQQKPGKAPKALIYLASNRHTGVPDRFSGSGSGTDFTLTISSLQPEDFATYYCLQHWNYPYTFGQGTKLEIK
Reply text: 2

Inquiry: Dear colleague, I am looking for the recorded Kd of the following binder: 900727 (humanized anti-CD73 antigen-binding protein) (antibody, V domains shown) VH: QVQLVQSGAEVKKPGASVKVSCKASGYTFTSYWIHWVRQAPGQGLEWIGMIHPNSGSTYYAQKFQGRVTITVDKSTSTAYMELSSLRSEDTAVYYCARYYGSDYEWYFDVWGQGTTVTVSS VL: DIQMTQSPSSMSASVGDRVTITCKASQNVRTAVVWYQQKPGKAPKALIYLASNRHTGVPDRFSGSGSGTDFTLTISSLQPEDFATYFCLQHWNYPYTFGQGTKLEIK
Reply text: 0.798

Inquiry: Dear colleague, I am looking for the recorded Kd of the following binder: 900725 (humanized anti-CD73 antigen-binding protein) (antibody, V domains shown) VH: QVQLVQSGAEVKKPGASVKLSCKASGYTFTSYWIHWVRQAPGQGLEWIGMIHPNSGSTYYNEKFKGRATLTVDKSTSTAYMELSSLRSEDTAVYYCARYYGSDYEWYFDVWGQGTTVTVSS VL: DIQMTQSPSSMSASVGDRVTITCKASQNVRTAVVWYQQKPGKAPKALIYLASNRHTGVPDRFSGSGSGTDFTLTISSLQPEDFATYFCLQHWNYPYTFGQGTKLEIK
Reply text: 0.368

Inquiry: Dear colleague, I am looking for the recorded Kd of the following binder: 900728 (humanized anti-CD73 antigen-binding protein) (antibody, V domains shown) VH: QVQLVQSGAEVKKPGASVKVSCKASGYTFTSYWIHWVRQAPGQGLEWIGMIHPNSGSTYYNEKFQGRVTMTVDKSTSTAYMELSSLRSEDTAVYYCARYYGSDYEWYFDVWGQGTTVTVSS VL: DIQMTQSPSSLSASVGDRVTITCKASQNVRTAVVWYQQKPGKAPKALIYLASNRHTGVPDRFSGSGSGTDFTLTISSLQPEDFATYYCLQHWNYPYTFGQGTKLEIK
Reply text: 0.561

Inquiry: Dear colleague, I am looking for the recorded Kd of the following binder: 900567 (human-mouse chimeric anti-CD73 antigen-binding protein expressed from 124A9 variable regions) (antibody, V domains shown) VH: QVQLQQPGAELVKPGASVKLSCKASGYTFTSYWIHWVKQRPGQGLDWIGMIHPNSGSTYYNEKFKSKATLTVDKSSSTAYMQLSSLTSEDSAVYYCARYYGSDYEWYFDVWGTGTTVTVSS VL: DIVMTQSQKFMSTSVGDRVSITCKASQNVRTAVVWYQQNPGQSPKALIYLASNRHTGVPDRFTGSGSGTDFTLTISNVHSEDLADYFCLQHWNYPYTFGGGTKLEIK
Reply text: 0.709
